Experiment: Cytotoxicity against human SH-SY5Y cells assessed as cell viability at 1 uM measured after 48 hrs by MTT assay relative to control
Format: cell-based
Settings: read-out: Activity

given-smiles	viability at 48 h, 1 µM / %
O=C(NCCCCCCCn1cc(-c2cccnc2)nn1)c1ccccc1-n1cc(CN(CCO)CCO)nn1	37.8
NC(=O)c1ccccc1-c1ccccc1C(=O)NCCCCCCCn1cc(-c2cccnc2)nn1	65.7
O=C(O)c1ccc(-c2ccccc2C(=O)NCCCCCCCn2cc(-c3cccnc3)nn2)cc1	22.5
O=C(O)c1ccccc1-c1ccccc1C(=O)NCCCCCCCn1cc(-c2cccnc2)nn1	80.9
O=C(O)c1cccc(-c2ccccc2C(=O)NCCCCCCCn2cc(-c3cccnc3)nn2)c1	78.4
O=C(NCCCCCCCn1cc(-c2cccnc2)nn1)c1ccccc1-c1c[nH]nn1	23.5
O=C(NCCCCCCCn1cc(-c2cccnc2)nn1)c1ccccc1-n1cc(CN2CCCC2)nn1	88.9
CC(C)N1CCN(Cc2cn(-c3ccccc3C(=O)NCCCCCCCn3cc(-c4cccnc4)nn3)nn2)CC1	80.2
CN1CCN(Cc2cn(-c3ccccc3C(=O)NCCCCCCCn3cc(-c4cccnc4)nn3)nn2)CC1	87.7

----------
Assay: Permeability across apical side to basolateral side in human Caco2 cells at 30 uM after 4 hrs by HPLC analysis
Format: ADME, cell-based
Conditions: caco-2, 4 h

molecule	qualifier-sign	permeability / %
O=C(/C=C/c1cccnc1)NCCCCC1CCN(C(=O)c2ccccc2)CC1	=	20.5
CC(C)(C)NCC(O)c1cc(O)cc(O)c1 (stereo not given)	=	52.7
O=C(NCCCCCCCn1cc(-c2cccnc2)nn1)c1ccccc1-n1ccnn1	=	10.6
CN1CCN(Cc2cn(-c3ccccc3C(=O)NCCCCCCCn3cc(-c4cccnc4)nn3)nn2)CC1	<	1
O=C(NCCCCCCCn1cc(-c2cccnc2)nn1)c1ccccc1-n1cc(CN2CCC(O)CC2)nn1	<	1

----------
Assay: Metabolic stability in human liver microsomes assessed as parent compound remaining at 50 uM […] for 60 mins by LC-ESI/MS analysis
Assay type: ADME, Microsome
Details: read-out: Stability
reported-metric: remaining at 1 h, 50 µM (%)

given-smiles	reported-metric	reported-result
O=C(NCCCCCCCn1cc(-c2cccnc2)nn1)c1ccccc1-n1ccnn1	remaining at 1 h, 50 µM	94

----------
Tested on: SH-SY5Y
Test: Cytotoxicity against human SH-SY5Y cells measured after 48 hrs by MTT assay
Type: cell-based
pEC50: −log10 of the molar value.
Examples of compounds with documented pEC50 follow.
reported-metric: pEC50

compound	system-name	qualifier-sign	reported-result
O=C(NCCCCCCCn1cc(-c2cccnc2)nn1)c1ccccc1-n1cc(CN2CCC(O)CC2)nn1	SH-SY5Y	<	5.00
NC(=O)c1ccccc1-c1ccccc1C(=O)NCCCCCCCn1cc(-c2cccnc2)nn1	SH-SY5Y	=	6.54
CC(C)N1CCN(Cc2cn(-c3ccccc3C(=O)NCCCCCCCn3cc(-c4cccnc4)nn3)nn2)CC1	SH-SY5Y	<	5.00
O=C(O)c1ccccc1-c1ccccc1C(=O)NCCCCCCCn1cc(-c2cccnc2)nn1	SH-SY5Y	<	6.30
O=C(NCCCCCCCn1cc(-c2cccnc2)nn1)c1ccccc1-n1cc(CN2CCOCC2)nn1	SH-SY5Y	<	6.30
O=C(O)c1cccc(-c2ccccc2C(=O)NCCCCCCCn2cc(-c3cccnc3)nn2)c1	SH-SY5Y	<	6.30
O=C(NCCCCCCCn1cc(-c2cccnc2)nn1)c1ccccc1-n1cc(CN2CCCCC2)nn1	SH-SY5Y	<	6.30
O=C(NCCCCCCCn1cc(-c2cccnc2)nn1)c1ccccc1-c1cccnc1	SH-SY5Y	=	7.44
O=C(/C=C/c1cccnc1)NCCCCC1CCN(C(=O)c2ccccc2)CC1 [DAPORINAD]	SH-SY5Y	=	8.60
O=C(O)c1ccc(-c2ccccc2C(=O)NCCCCCCCn2cc(-c3cccnc3)nn2)cc1	SH-SY5Y	=	6.65
O=C(NCCCCCCCn1cc(-c2cccnc2)nn1)c1ccccc1-n1cc(CN(CCO)CCO)nn1	SH-SY5Y	<	6.30
CN(C)Cc1cn(-c2ccccc2C(=O)NCCCCCCCn2cc(-c3cccnc3)nn2)nn1	SH-SY5Y	=	6.54
CCOC(=O)C1CCN(Cc2cn(-c3ccccc3C(=O)NCCCCCCCn3cc(-c4cccnc4)nn3)nn2)CC1	SH-SY5Y	=	7.21
O=C(NCCCCCCCn1cc(-c2cccnc2)nn1)c1ccccc1-n1ccnn1	SH-SY5Y	=	7.45
O=C(NCCCCCCCn1cc(-c2cccnc2)nn1)c1ccccc1-n1cc(CN2CCCC2)nn1	SH-SY5Y	<	5.00
O=C(NCCCCCCCn1cc(-c2cccnc2)nn1)c1ccccc1-c1c[nH]nn1	SH-SY5Y	=	7.06
CN1CCN(Cc2cn(-c3ccccc3C(=O)NCCCCCCCn3cc(-c4cccnc4)nn3)nn2)CC1	SH-SY5Y	<	5.00
